biological target: human TLR9 (Homo sapiens, UniProt Q9NR96); assay: TLR9 inhibition reporter assay (HEK-Blue cells, SEAP reporter, ODN2006 stimulation); details: HEK-Blue cells overexpressing human TLR9, ODN2006 5 nM
Sequence (Q9NR96 26-1032): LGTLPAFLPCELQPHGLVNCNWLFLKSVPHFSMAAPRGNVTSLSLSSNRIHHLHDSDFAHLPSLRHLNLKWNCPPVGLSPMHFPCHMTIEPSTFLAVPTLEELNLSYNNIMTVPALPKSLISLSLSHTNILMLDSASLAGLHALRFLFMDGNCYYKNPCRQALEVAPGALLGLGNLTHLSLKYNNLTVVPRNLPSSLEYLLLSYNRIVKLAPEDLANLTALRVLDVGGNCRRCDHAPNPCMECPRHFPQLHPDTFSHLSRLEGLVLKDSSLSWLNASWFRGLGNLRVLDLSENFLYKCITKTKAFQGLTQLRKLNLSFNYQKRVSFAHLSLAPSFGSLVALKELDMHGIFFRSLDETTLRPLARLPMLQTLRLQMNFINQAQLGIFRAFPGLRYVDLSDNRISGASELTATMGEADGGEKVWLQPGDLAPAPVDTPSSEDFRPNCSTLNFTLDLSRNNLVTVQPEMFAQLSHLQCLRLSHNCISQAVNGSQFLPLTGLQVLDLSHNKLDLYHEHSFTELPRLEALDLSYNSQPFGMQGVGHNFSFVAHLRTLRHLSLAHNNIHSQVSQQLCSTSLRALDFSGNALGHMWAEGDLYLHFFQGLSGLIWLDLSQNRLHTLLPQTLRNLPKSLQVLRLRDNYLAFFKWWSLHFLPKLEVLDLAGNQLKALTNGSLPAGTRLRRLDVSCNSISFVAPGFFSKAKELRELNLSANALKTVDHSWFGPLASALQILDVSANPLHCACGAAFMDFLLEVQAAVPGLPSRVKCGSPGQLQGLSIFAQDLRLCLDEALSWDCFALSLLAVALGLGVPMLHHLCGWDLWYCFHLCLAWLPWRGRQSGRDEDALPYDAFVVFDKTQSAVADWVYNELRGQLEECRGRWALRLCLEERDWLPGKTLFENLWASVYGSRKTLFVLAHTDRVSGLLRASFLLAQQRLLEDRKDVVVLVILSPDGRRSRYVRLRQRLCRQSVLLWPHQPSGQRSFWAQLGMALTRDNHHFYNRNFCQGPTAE
pIC50: −log10 of the molar value.
Outcome label depends on pIC50 relative to 6: at/above gives y, below gives n.

Data request: Decide: pIC50 of COc1ccc(-c2[nH]c3ccc(C4CCN(C5CCN(CC6CCCC6)CC5)CC4)cc3c2C)cc1OC >= 6?
Data returned: y

Data request: Now consider CCc1c(-c2ccc(OC)c(OC)c2)[nH]c2ccc(C3CCN(C(=O)C(C)(C)OC(C)=O)CC3)cc12 .
Data returned: n

Data request: Now consider COc1ccc(-c2[nH]c3ccc(C4CCN(C(=O)COc5cccnc5)CC4)cc3c2CC(F)(F)F)cc1OC .
Data returned: n

Data request: Now consider COc1ccc(-c2[nH]c3ccc(C4CCN(C5CCN(C(C)C)CC5)CC4)cc3c2C(C)C)cc1OC .
Data returned: y

Data request: Now consider COc1ccc(-c2[nH]c3ccc(C4CCN(C(C)CO)CC4)cc3c2C)cc1OC (centres unmarked) .
Data returned: n

---

target: human TLR9 (Homo sapiens, UniProt Q9NR96); experiment: TLR9 inhibition reporter assay (HEK-Blue cells, SEAP reporter, ODN2006 stimulation); conditions: HEK-Blue cells overexpressing human TLR9, ODN2006 5 nM
measurement kind: IC50 (nM)
Field format: number, assumed nM, no unit text.

Data request: Name the recorded IC50 for COc1ccc(-c2[nH]c3ccc(C4CCN(C5CCCC(N(C)C)C5)CC4)cc3c2C)cc1OC (centres unmarked) [Example 25] .
Data returned: 169

Data request: Now consider COc1ccc(-c2[nH]c3ccc(C4CCN(Cc5cccc(C#N)c5)CC4)cc3c2C(C)C)cc1OC [Example 264] .
Data returned: 5090

Data request: Now consider COc1ccc(-c2[nH]c3ccc(C4CCN(CCN)CC4)cc3c2C)cc1OC [Example 100] .
Data returned: 543

Data request: Now consider COc1ccc(-c2[nH]c3ccc(C4CCNCC4F)cc3c2C(C)C)cc1OC (racemic) [Example 319] .
Data returned: 9110

Data request: Now consider CCN(CC)C(=O)C1CCCN(CC(=O)N2CCC(c3ccc4[nH]c(-c5ccc(OC)c(OC)c5)c(C5CCOCC5)c4c3)CC2)C1 (centres unmarked) [Example 392] .
Data returned: 1800

Data request: Now consider COc1ccc(-c2[nH]c3ccc(C4CCN(CC5CCCCN5)CC4)cc3c2C)cc1OC (centres unmarked) [Example 101] .
Data returned: 209

Data request: Now consider COc1ccc(-c2[nH]c3ccc(C4CCN(C(=O)CN5CCC[C@@H](C(=O)N(C)C(C)C)C5)CC4)cc3c2C(C)C)cc1OC [Example 304] .
Data returned: 2750

Data request: Now consider COc1ccc(-c2[nH]c3ccc(C4CCN(C(=O)CN5CCCCC5C[C@@H]5CCCN5C)CC4)cc3c2C(C)C)cc1OC (some centres unmarked) [Example 225] .
Data returned: 3230

Data request: Now consider COc1ccc(-c2[nH]c3ccc(C4CCN(C5CCN(CC(C)(C)CO)CC5)CC4)cc3c2C)cc1OC [Example 69] .
Data returned: 174

Data request: Now consider COc1ccc(-c2[nH]c3ccc(C4CCN(C5CCN(Cc6nccs6)CC5)CC4)cc3c2C)cc1OC [Example 72] .
Data returned: 356

Data request: Now consider COc1ccc(-c2[nH]c3ccc(C4CCN(C(=O)CNCC(C)(C)CO)CC4)cc3c2C(C)C)cc1OC [Example 219] .
Data returned: 2100

Data request: Now consider CCc1c(-c2ccc(OC)c(OC)c2)[nH]c2ccc(C3CCN(C4CCN(Cc5cc6ccccc6n5C)CC4)CC3)cc12 [Example 137] .
Data returned: 2600

Data request: Now consider CCc1c(-c2ccc(OC)c(OC)c2)[nH]c2ccc(C3CCN(C(=O)CN4CCCC(C(=O)N(CC)CC)C4)CC3)cc12 (single isomer, unassigned) [Example 179] .
Data returned: 747

Data request: Now consider CCN(CCN(C)C)C(=O)CN1CCC(c2ccc3[nH]c(-c4ccc(OC)c(OC)c4)c(CC(F)(F)F)c3c2)CC1 [Example 372] .
Data returned: 335
